Origin of the recorded values: paper PMC9490041

assay.system: PSG (PSD-95)
experiment.summary: fluorescence polarisation; displacement of 5 nM FITC-15 AA CRIPT from PDZ3 or a PSG variant by unlabelled acetylated peptide (2-fold series), room temperature, technical triplicates; Ki calculated from IC50 (Nikolovska-Coleska); buffer: methods 50 mM sodium phosphate pH 7.45, 21 mM KCl, 0.1% Tween 20, 1 mM TCEP; legend of Figure 2: 50 mM Tris, 100 mM NaCl, 1 mM TCEP, 0.1% Tween 20
Ends that are not written are not given here.
parameter: IC50 (µM)

binder	IC50 (µM)
Ac-YSRQHSKLLDFDDVL	1390
Ac-YPPSSPTLSVSSTSL	1590
Ac-YDKPLSKKHAHSVNF	2060
Ac-YLTGAPLATSDETSI	1740
